pIC50: −log10 of the molar value.
Here's a batch of compounds along with measured pIC50 for MERS 3CL-Pro (Middle East respiratory syndrome-related coronavirus, UniProt K9N7C7).

{"columns": ["compound", "pIC50"],
 "data": [
  ["N#CSc1cc(SC#N)c(N)nc1N", 5.64],
  ["CCC(C)SSc1ncc[nH]1 (centres unmarked)", 5.12]
]}

* * *

- System: SARS-CoV-2
- Assay type: cell-based
- test_parameters: read-out: vRNA reduction / viral replication IC50 in Vero-E6 (qPCR)
Where a SMILES comes first, the peptide text is derived from it. The star is where a group is joined. Cbz = O=C(OCc1ccccc1)*
measure_name: IC50 (nM)

{"columns": ["compound", "measure_name", "endpoint_result"],
 "data": [
  ["CC(C)C[C@@H](C=O)NC(=O)[C@H](CC(C)C)NC(=O)[C@H](CC(C)C)NC(=O)OCc1ccccc1 [MG-132] (Cbz-Leu-Leu-Leu-aldehyde)", "IC50", 100]
]}

* * *

- target_entity: SARS-CoV-2 3CL-Pro (Severe acute respiratory syndrome coronavirus 2, UniProt P0DTD1)
- method: biochemical
- Type: biochemical
- test_parameters: read-out: SARS-CoV-2 3CL-Pro IC50; without DTT, values given in nM

{"columns": ["molecule", "target_entity", "IC50"],
 "data": [
  ["COC(=O)CC[C@H](NC(=O)[C@H](CC(=O)OC)NC(=O)OCc1ccccc1)C(=O)N[C@H](C(=O)N[C@@H](CC(=O)OC)C(=O)CF)C(C)C", "SARS-CoV-2 3CL-Pro (Severe acute respiratory syndrome coronavirus 2, UniProt P0DTD1)", "10 nM"],
  ["CC(=O)[O][Hg][c]1ccccc1 [phenylmercuric acetate]", "SARS-CoV-2 3CL-Pro (Severe acute respiratory syndrome coronavirus 2, UniProt P0DTD1)", "10 nM"]
]}

* * *

- target_entity: UniProtKB P0DTD1
- method: biochemical
- Type: biochemical
- test_parameters: read-out: SARS-CoV-2 3CL-Pro IC50 (unit inferred)

{"columns": ["molecule", "target_entity", "IC50"],
 "data": [
  ["Oc1cc(CNC(=S)/C=C/c2cc(O)c(O)c(Br)c2)cc(O)c1O [NT-157]", "UniProtKB P0DTD1", "500 nM"]
]}

* * *

- target_entity: SARS-CoV-2 3CL-Pro (Severe acute respiratory syndrome coronavirus 2)
- method: biochemical
- Assay type: biochemical
- test_parameters: 20 μM compound, result in words
measure_name: effect of DTT (0 and 1 mM) on SARS-CoV-2 3CL-Pro inhibition

{"columns": ["given_smiles", "endpoint_result"],
 "data": [
  ["CCCCCCNC(=O)n1cc(F)c(=O)[nH]c1=O", "insensitive to DTT"],
  ["Cn1sc(=O)n(Cc2ccccc2)c1=O", "insensitive to DTT"]
]}

* * *

- target_entity: SARS-CoV-2 3CL-Pro (Severe acute respiratory syndrome coronavirus 2, UniProt P0DTD1)
- method: biochemical
- Type: biochemical
- test_parameters: read-out: HP 3CL-Pro IC50; hit profiling, without DTT
pIC50: −log10 of the molar value.
measure_name: pIC50

{"columns": ["compound", "measure_name", "endpoint_result"],
 "data": [
  ["CC(Cc1ccc(O)c(O)c1)C(C)Cc1ccc(O)c(O)c1 (centres unmarked) [nordihydroguaiaretic acid]", "pIC50", 5.59],
  ["N#CSc1cc(SC#N)c(N)nc1N", "pIC50", 6.40]
]}
